- System: HepaRG
- run_description: Neutral red uptake assay, HepaRG
- Format: cell-based
- experimental_setup: Homo sapiens, 72 h exposure
Please respond with reported pIC50 for every item in the list.
One number for each entry, as −log10 of the molar value.

>  <structure_smiles_string>
CCOc1ccc(NCc2c(C)nc(-c3ccccc3)nc2Nc2ccc(F)cc2)cc1

>  <tested_system>
HepaRG

>  <pIC50>
3.39

$$$$

# next compound below
Incoming: Note down pIC50 recorded for CCOc1ccc(N=Cc2c(C)nc(-c3ccccc3)nc2Nc2ccc(F)cc2)cc1
Outgoing: 3.50

====

- run_description: Neutral red uptake assay, L-929 cell line (primary screening)
- Assay type: cell-based, mouse
- experimental_setup: mouse, L-929 cells; L-929, 1000 µM, p < 0,05
- Description: L-929 (mouse C3H/An connective tissue), Caco-2 (human colon adenocarcinoma), A172 (human glioblastoma), AGS (human gastric adenocarcinoma), HepaRG (human hepatoma cell), and HeLa (human cervix epithelioid carcinoma) cell lines were obtained from the European Collection of Authenticated Cell Cultures (ECACC) and provided by Sigma Aldrich/Merck (Munich, Germany). […] Absorption was measured using a Thermo Scientific™ (Waltham, MA, USA) Multiskan™ GO microplate spectrophotometer at 540 nm. […]
quantity_name: viability at 1000 µM
Write the numeric value and append its unit.

Incoming: Identify measured viability at 1000 µM corresponding to CCOc1ccc(N=Cc2c(C)nc(-c3ccccc3)nc2Nc2ccc(F)cc2)cc1
Outgoing: 115%
